Tested on: HIV-1MDR/G (X4)
Assay: microbe, parasite or virus in culture
Type: cell-based
Settings: Human immunodeficiency virus 1, read-out: IC50 against HIV-1MDR/G (X4)
pIC50: −log10 of the molar value.
Property: pIC50

1. CC(C)CN(CC(O)C(Cc1ccccc1)NC(=O)OC1COC2OCCC12)S(=O)(=O)c1ccc2c(c1)OCO2 (centres unmarked)	8.47
2. CC(C)(C)NC(=O)[C@@H]1CN(Cc2cccnc2)CCN1C[C@@H](O)C[C@@H](Cc1ccccc1)C(=O)N[C@H]1c2ccccc2C[C@H]1O	6.19
3. CC(C)(C)NC(=O)[C@@H]1C[C@@H]2CCCC[C@@H]2CN1C[C@@H](O)[C@H](Cc1ccccc1)NC(=O)[C@H](CC(N)=O)NC(=O)c1ccc2ccccc2n1	7.48
4. CC(C)CN(C[C@@H](O)[C@H](Cc1ccccc1)NC(=O)O[C@H]1CCOC1)S(=O)(=O)c1ccc(N)cc1	6.49
5. COC(=O)N[C@H](C(=O)N[C@@H](Cc1ccccc1)[C@@H](O)CN(Cc1ccc(-c2ccccn2)cc1)NC(=O)[C@@H](NC(=O)OC)C(C)(C)C)C(C)(C)C	7.49
